method summary: self-splicing fitness, log relative to wild type (ln ratio); higher = more splicing; Tetrahymena group I intron in knt gene, E. coli kanamycin selection, DiMSum; sequences stand for … in CUCUCU…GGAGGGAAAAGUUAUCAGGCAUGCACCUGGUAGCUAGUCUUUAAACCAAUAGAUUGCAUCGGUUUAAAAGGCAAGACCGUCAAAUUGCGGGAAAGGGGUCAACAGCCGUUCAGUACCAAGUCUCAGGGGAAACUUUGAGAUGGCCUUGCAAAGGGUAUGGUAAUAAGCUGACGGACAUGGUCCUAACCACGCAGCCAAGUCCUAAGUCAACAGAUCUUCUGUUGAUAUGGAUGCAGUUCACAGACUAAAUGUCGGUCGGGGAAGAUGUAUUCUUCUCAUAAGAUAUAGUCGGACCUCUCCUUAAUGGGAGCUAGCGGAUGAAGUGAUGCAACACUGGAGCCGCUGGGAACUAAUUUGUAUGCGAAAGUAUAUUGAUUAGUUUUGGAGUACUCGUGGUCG;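 note: selection with 25 µg/mL kanamycin versus none on LB agar overnight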
measurement conditions: 37 °C
# self-splicing fitness (ln) >= -1 gives TRUE, anything below gives FALSE

>  <chain sequence>
GGAAAGCAAUAUUACGACGG

>  <discrete label>
FALSE

$$$$
>  <chain sequence>
CCACAGCAAUAUUACGAGGC

>  <discrete label>
FALSE

$$$$
>  <chain sequence>
GAUGAGCAAUAUUACGGUGG

>  <discrete label>
FALSE

$$$$
>  <chain sequence>
AGAAAGCAAUAUUACGUUCC

>  <discrete label>
FALSE

$$$$
>  <chain sequence>
GAUGAGCAAUAUUACGCAUG

>  <discrete label>
FALSE

$$$$
>  <chain sequence>
AAGUAGCAAUAUUACGGCUA

>  <discrete label>
TRUE

$$$$
>  <chain sequence>
UGGCAGCAAUAUUACGCUAA

>  <discrete label>
TRUE

$$$$
>  <chain sequence>
CCUUAGCAAUAUUACGGUCG

>  <discrete label>
TRUE

$$$$
>  <chain sequence>
UAAAAGCAAUAUUACGGGAA

>  <discrete label>
FALSE

$$$$
>  <chain sequence>
CUCCAGCAAUAUUACGGAAA

>  <discrete label>
FALSE

$$$$
>  <chain sequence>
GGCGAGCAAUAUUACGUUUU

>  <discrete label>
FALSE

$$$$
>  <chain sequence>
GGUAAGCAAUAUUACGCAGC

>  <discrete label>
FALSE

$$$$
>  <chain sequence>
CACAAGCAAUAUUACGUGCG

>  <discrete label>
TRUE

$$$$
>  <chain sequence>
CGCGAGCAAUAUUACGUGUC

>  <discrete label>
FALSE

$$$$
>  <chain sequence>
ACGCAGCAAUAUUACGCAGA

>  <discrete label>
FALSE

$$$$
>  <chain sequence>
AACGAGCAAUAUUACGAGUC

>  <discrete label>
FALSE

$$$$
>  <chain sequence>
CGGCAGCAAUAUUACGCAGA

>  <discrete label>
FALSE

$$$$
>  <chain sequence>
GCCAAGCAAUAUUACGUCGU

>  <discrete label>
TRUE

$$$$
>  <chain sequence>
GGCCAGCAAUAUUACGAUGA

>  <discrete label>
FALSE

$$$$
>  <chain sequence>
GAUAAGCAAUAUUACGACCA

>  <discrete label>
TRUE

$$$$
>  <chain sequence>
UGCAAGCAAUAUUACGUGGU

>  <discrete label>
FALSE

$$$$
>  <chain sequence>
ACAUAGCAAUAUUACGCGAA

>  <discrete label>
FALSE

$$$$
>  <chain sequence>
CAUAAGCAAUAUUACGAUUA

>  <discrete label>
FALSE

$$$$
>  <chain sequence>
GCGAAGCAAUAUUACGCCAA

>  <discrete label>
FALSE

$$$$
>  <chain sequence>
CUAAAGCAAUAUUACGUACG

>  <discrete label>
TRUE

$$$$
>  <chain sequence>
GCAUAGCAAUAUUACGGGCU

>  <discrete label>
TRUE

$$$$
>  <chain sequence>
AAUCAGCAAUAUUACGCGUC

>  <discrete label>
TRUE

$$$$
>  <chain sequence>
CUGGAGCAAUAUUACGGUAC

>  <discrete label>
FALSE

$$$$
>  <chain sequence>
GCCAAGCAAUAUUACGGACA

>  <discrete label>
TRUE

$$$$
>  <chain sequence>
ACUCAGCAAUAUUACGUCUC

>  <discrete label>
TRUE

$$$$

---

method summary: self-splicing fitness, log relative to wild type (ln ratio); higher = more splicing; Tetrahymena group I intron in knt gene, E. coli kanamycin selection, DiMSum; sequences stand for … in CUCUCU…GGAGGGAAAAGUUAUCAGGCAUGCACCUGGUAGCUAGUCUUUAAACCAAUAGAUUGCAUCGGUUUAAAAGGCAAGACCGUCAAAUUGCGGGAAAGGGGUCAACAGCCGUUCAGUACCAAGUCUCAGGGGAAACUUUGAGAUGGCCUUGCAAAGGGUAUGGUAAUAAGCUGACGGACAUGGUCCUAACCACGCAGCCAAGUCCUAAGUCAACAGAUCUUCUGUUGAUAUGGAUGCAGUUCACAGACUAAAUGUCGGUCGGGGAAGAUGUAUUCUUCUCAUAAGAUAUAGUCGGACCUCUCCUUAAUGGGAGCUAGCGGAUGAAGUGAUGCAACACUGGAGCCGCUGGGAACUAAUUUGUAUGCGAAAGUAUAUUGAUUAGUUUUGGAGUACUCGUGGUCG
measurement conditions: 37 °C
Consider the following sequences and their measured self-splicing fitness (ln) readings.
property: self-splicing fitness (ln)

>  <chain sequence>
ACAUAGCAAUAUUACGGAUA

>  <property>
self-splicing fitness (ln)

>  <test result>
-2.34

$$$$
>  <chain sequence>
GGAAAGCAAUAUUACGGUCA

>  <property>
self-splicing fitness (ln)

>  <test result>
0.154

$$$$
>  <chain sequence>
AUCAAGCAAUAUUACGGAUC

>  <property>
self-splicing fitness (ln)

>  <test result>
-1.91

$$$$
>  <chain sequence>
CCUUAGCAAUAUUACGCAAG

>  <property>
self-splicing fitness (ln)

>  <test result>
-3.09

$$$$
>  <chain sequence>
UUUUAGCAAUAUUACGUCCC

>  <property>
self-splicing fitness (ln)

>  <test result>
-1.78

$$$$
>  <chain sequence>
GAAGAGCAAUAUUACGGUCU

>  <property>
self-splicing fitness (ln)

>  <test result>
-0.469

$$$$
>  <chain sequence>
ACGUAGCAAUAUUACGAAGA

>  <property>
self-splicing fitness (ln)

>  <test result>
-0.644

$$$$
>  <chain sequence>
ACAUAGCAAUAUUACGCUGU

>  <property>
self-splicing fitness (ln)

>  <test result>
-2.69

$$$$
>  <chain sequence>
UGAAAGCAAUAUUACGAAUA

>  <property>
self-splicing fitness (ln)

>  <test result>
-0.396

$$$$
>  <chain sequence>
CAACAGCAAUAUUACGUGUG

>  <property>
self-splicing fitness (ln)

>  <test result>
-2.32

$$$$
>  <chain sequence>
UGCCAGCAAUAUUACGACAA

>  <property>
self-splicing fitness (ln)

>  <test result>
0.212

$$$$
>  <chain sequence>
UUAUAGCAAUAUUACGUGCA

>  <property>
self-splicing fitness (ln)

>  <test result>
-1.07

$$$$
>  <chain sequence>
UAGUAGCAAUAUUACGGUUU

>  <property>
self-splicing fitness (ln)

>  <test result>
-0.883

$$$$
>  <chain sequence>
AAUAAGCAAUAUUACGGGUU

>  <property>
self-splicing fitness (ln)

>  <test result>
-1.43

$$$$
>  <chain sequence>
GGGAAGCAAUAUUACGUGGA

>  <property>
self-splicing fitness (ln)

>  <test result>
-2.34

$$$$
>  <chain sequence>
GUCUAGCAAUAUUACGCGCA

>  <property>
self-splicing fitness (ln)

>  <test result>
0.157

$$$$
>  <chain sequence>
GUCUAGCAAUAUUACGCCGA

>  <property>
self-splicing fitness (ln)

>  <test result>
-0.506

$$$$
>  <chain sequence>
UCCGAGCAAUAUUACGUCAG

>  <property>
self-splicing fitness (ln)

>  <test result>
-1.07

$$$$
>  <chain sequence>
AGCAAGCAAUAUUACGGCUC

>  <property>
self-splicing fitness (ln)

>  <test result>
-3.41

$$$$
>  <chain sequence>
CUCUAGCAAUAUUACGUCUG

>  <property>
self-splicing fitness (ln)

>  <test result>
-2.27

$$$$
>  <chain sequence>
UUGCAGCAAUAUUACGGGAG

>  <property>
self-splicing fitness (ln)

>  <test result>
-1.58

$$$$
>  <chain sequence>
CCGAAGCAAUAUUACGACGG

>  <property>
self-splicing fitness (ln)

>  <test result>
-3.11

$$$$
>  <chain sequence>
AUCCAGCAAUAUUACGUUUU

>  <property>
self-splicing fitness (ln)

>  <test result>
-1.15

$$$$
>  <chain sequence>
UGACAGCAAUAUUACGCAGA

>  <property>
self-splicing fitness (ln)

>  <test result>
-1.11

$$$$
